- TARGET OR SYSTEM: T1, GFP (Aequorea victoria GFP, engineered …)
- T1 construct: green fluorescent protein expressed from pYTK001; also called green fluorescent protein; source: E. coli DH5α, constitutive expression from pYTK001, in lysate
- T1 sequence (P42212 other isoform, or with tags, fused parts or gaps): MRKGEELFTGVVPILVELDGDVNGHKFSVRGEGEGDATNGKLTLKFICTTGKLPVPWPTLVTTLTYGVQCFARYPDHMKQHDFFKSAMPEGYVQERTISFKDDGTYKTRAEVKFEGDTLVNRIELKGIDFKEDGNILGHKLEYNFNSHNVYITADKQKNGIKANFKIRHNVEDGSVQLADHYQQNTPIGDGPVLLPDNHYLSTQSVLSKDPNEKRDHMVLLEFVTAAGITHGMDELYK
- ASSAY TEXT: flow cytometry on cells; about 1 x 10^6 yeast cells displaying the α-GFP Nb in 20 mM HEPES pH 7.5, 150 mM NaCl, 0.1% BSA, 5 mM maltose; GFP from a bacterial cell lysate (20–30 μL); 15 min at 4 °C; GFP fluorescence, percent of positive cells
- CONDITION LABEL: partners not purified
Assignment: determine reported percent of cells labelled with GFP for the given binders.

Prompt: Read the entry α-GFP Nb displayed as C-terminal fusion to untagged Aga2 (VHH, anti-GFP nanobody, as in m2; also called anti-GFP Nanobody; not shown: Aga2p anchor (YGL032C), N-terminal, kept) VHH: QVQLVESGGALVQPGGSLRLSCAASGFPVNRYSMRWYRQAPGKEREWVAGMSSAGDRSSYEDSVKGRFTISRDDARNTVYLQMNSLKPEDTAVYYCNVNVGFEYWGQGTQVTVSS and write its reported percent of cells labelled with GFP.
Response: > 60%

Prompt: Supply percent of cells labelled with GFP value. Item: α-GFP Nb displayed as N-terminal fusion to 2xFLAG-tagged Aga1ΔN181 (VHH, anti-GFP nanobody, as in m2; also called anti-GFP Nanobody; not shown: 2xFLAG, internal (between nanobody and anchor), kept; Aga1ΔN181 anchor (Aga1p YNR044W amino acids 182–544), C-terminal, kept) VHH: QVQLVESGGALVQPGGSLRLSCAASGFPVNRYSMRWYRQAPGKEREWVAGMSSAGDRSSYEDSVKGRFTISRDDARNTVYLQMNSLKPEDTAVYYCNVNVGFEYWGQGTQVTVSS
Response: > 80%

Prompt: Recall and state the measured percent of cells labelled with GFP for α-GFP Nb displayed as C-terminal fusion to MYC-tagged Aga2 (VHH, anti-GFP nanobody, as in m2; also called anti-GFP Nanobody; not shown: Aga2p anchor (YGL032C), N-terminal, kept) VHH: QVQLVESGGALVQPGGSLRLSCAASGFPVNRYSMRWYRQAPGKEREWVAGMSSAGDRSSYEDSVKGRFTISRDDARNTVYLQMNSLKPEDTAVYYCNVNVGFEYWGQGTQVTVSS .
Response: > 60%

Prompt: // Input: α-GFP Nb displayed as C-terminal fusion to HA-tagged Aga2 (VHH, anti-GFP nanobody, as in m2; Held on the cell by coexpressed Aga1; also called anti-GFP Nanobody; not shown: HA, internal (after amino acid 18 of Aga2p, after the signal peptide), kept; Aga2p anchor (YGL032C), N-terminal, kept) VHH: QVQLVESGGALVQPGGSLRLSCAASGFPVNRYSMRWYRQAPGKEREWVAGMSSAGDRSSYEDSVKGRFTISRDDARNTVYLQMNSLKPEDTAVYYCNVNVGFEYWGQGTQVTVSS . Output its percent of cells labelled with GFP only.
Response: > 60%

Prompt: Tell me its percent of cells labelled with GFP given α-GFP Nb displayed as N-terminal fusion to MYC-tagged Aga1ΔN181 (VHH, anti-GFP nanobody, as in m2; also called anti-GFP Nanobody; not shown: MYC, internal (between nanobody and anchor), kept; Aga1ΔN181 anchor (Aga1p YNR044W amino acids 182–544), C-terminal, kept) VHH: QVQLVESGGALVQPGGSLRLSCAASGFPVNRYSMRWYRQAPGKEREWVAGMSSAGDRSSYEDSVKGRFTISRDDARNTVYLQMNSLKPEDTAVYYCNVNVGFEYWGQGTQVTVSS as the entry.
Response: > 80%

Prompt: Give percent of cells labelled with GFP for α-GFP Nb displayed as N-terminal fusion to HA-tagged Aga1ΔN181 (VHH, anti-GFP nanobody; Plasmid details in File S1; also called anti-GFP Nanobody; not shown: HA (of the anchor part), internal (between nanobody and anchor), kept; Aga1ΔN181 anchor (Aga1p YNR044W amino acids 182–544), C-terminal, kept) VHH: QVQLVESGGALVQPGGSLRLSCAASGFPVNRYSMRWYRQAPGKEREWVAGMSSAGDRSSYEDSVKGRFTISRDDARNTVYLQMNSLKPEDTAVYYCNVNVGFEYWGQGTQVTVSS
Response: > 80%

Prompt: State, in one line, measured percent of cells labelled with GFP of α-GFP Nb displayed as C-terminal fusion to 2xFLAG-tagged Aga2 (VHH, anti-GFP nanobody, as in m2; Held on the cell by coexpressed Aga1; also called anti-GFP Nanobody; not shown: 2xFLAG, internal (after amino acid 18 of Aga2p, after the signal peptide), kept; Aga2p anchor (YGL032C), N-terminal, kept) VHH: QVQLVESGGALVQPGGSLRLSCAASGFPVNRYSMRWYRQAPGKEREWVAGMSSAGDRSSYEDSVKGRFTISRDDARNTVYLQMNSLKPEDTAVYYCNVNVGFEYWGQGTQVTVSS
Response: > 60%
